B1: SETD8 (parent)
chain: FVVEYHGDLIEITDAKKREALYAQ

Variants of: B1
test: protein stability index of a GFP-peptide fusion (GPS, HEK-293T) (PSI 1-6); higher = more stable;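 also: lentivirally expressed fusions sorted by FACS into six bins by GFP to DsRed ratio, PSI derived from sequencing read proportions per bin multiplied by bin number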
experimentalParameters: c terminus: a fixed tail appended
reportedProperty: protein stability index

Please review the entries below; each comes with its answer.
mutationLabel	value
Y22H	1.84
I12M	1.72
I12V	2.18
L9V	2.47
A23F	2.57

State the recorded protein stability index for every item in the following list.
1. I12E
2. T13L

[2.74, 2.63]

// batch mode: one protein stability index value per listed entry
1. G7Q
2. D14W
3. T13R
4. L21V
5. R18Q

1: 1.83; 2: 1.31; 3: 2.07; 4: 1.91; 5: 1.46

Answer for every listed entry: what is its protein stability index? The entries follow.
1. L9R
2. Y5P
3. A15G
4. A15P
5. V2H
6. R18T

1.8
3.03
2.23
2.73
3.65
1.57

Could you report protein stability index for every entry in the following list?
1. E11S
2. D14M
3. Y22T
4. L21D
5. Y22W
6. D14Q
7. R18S
8. G7S

[2.25, 1.95, 1.76, 2.52, 1.56, 2.13, 2.04, 1.89]

List protein stability index for every entry below, keeping the order given.
1. F1E
2. A23K
3. E11R
4. E19T
5. Y5K
6. I10A
7. K16T

1: 4.75; 2: 2.17; 3: 1.37; 4: 2.42; 5: 2.68; 6: 2.08; 7: 1.28

# return protein stability index for each item in the list
1. K17L
2. D14P
3. F1D
4. D8K
5. H6L
6. V2I

1.73
1.37
4.46
1.82
2.02
1.83

# batch size: 7; output protein stability index per entry
1. K16E
2. Y22K
3. I10Y
4. E19N
5. A23L
6. F1Q
7. A15D

1. 2.08
2. 2.88
3. 1.61
4. 1.27
5. 2.36
6. 4.63
7. 1.82

Provide protein stability index for all items below, preserving their order.
1. E11A
2. D14V
3. V3E
4. Y5H
5. F1Y
6. D8H
7. K17S

[1.14, 1.45, 2.83, 2.1, 2.62, 1.56, 1.81]
